Below, each entry is listed alongside its reported protein stability index.
B1: FAM107A (parent)
chain: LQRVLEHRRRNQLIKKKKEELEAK

# Variants of: B1
# Assay Protocol: protein stability index of a GFP-peptide fusion (GPS, HEK-293T) (PSI 1-6); higher = more stable;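 further: lentivirally expressed fusions sorted by FACS into six bins by GFP to DsRed ratio, PSI derived from sequencing read proportions per bin multiplied by bin number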
# Stated Conditions: c terminus: a fixed tail appended
The answer should be a number; do not append a unit.

Examples with their reported protein stability index follow.
LQRVLEHFRRNQLIKKKKEELEAK : 2.1
LQRVLEHRRRNQLIKKKKEELWAK : 2.75
LQRVLEHRRRNQLIKKCKEELEAK : 2.8

Data request: What does the data say about its protein stability index? Entry: LQRVLEHRMRNQLIKKKKEELEAK
Data returned: 2.77

Data request: Try LQRVLEHTRRNQLIKKKKEELEAK next.
Data returned: 3.87

Data request: Please give the result for LQRVLEHRRRNQLIMKKKEELEAK too.
Data returned: 3.98
